All values here come from paper PMC6980506.

- PROTOCOL TEXT: Single dose pharmacokinetic study in beagle dog
- Format: in vivo
- TEST CONTEXT: male, beagle, plasma, iv; Dog, 0.5 mg kg^−1 i.v., mean ± SD, n=3; read-out: CL, total body clearance (converted)
OUTCOME MEASURE: clearance (mL/min/kg)
Give bare numbers, in mL/min/kg.

Query Cc1cc(C(=O)O)nc(N2C[C@H]3C[C@@H](c4ccccc4C(F)(F)F)C[C@H]3C2)n1 yields clearance of 0.783

----------
- PROTOCOL TEXT: Single dose pharmacokinetic study in cynomolgus monkey
- Format: in vivo
- TEST CONTEXT: male, cynomolgus monkey, plasma, po, 5 mg/kg, non-human primate, po 5 mg/kg, 0.25 hr; read-out: Plasma level, Mean
OUTCOME MEASURE: concentration at 0.25 h (ng/mL)
Answers are plain numbers, in ng/mL.

Memo: Cc1cc(C(=O)O)nc(N2C[C@H]3C[C@@H](c4ccccc4C(F)(F)F)C[C@H]3C2)n1 , reported concentration at 0.25 h: 11100

----------
- PROTOCOL TEXT: Single dose pharmacokinetic study in cynomolgus monkey
- Assay type: in vivo
- TEST CONTEXT: male, cynomolgus monkey, plasma, iv, 1 mg/kg, non-human primate, iv 1.0 mg/kg, 0.0083 hr; read-out: Plasma level, Mean
OUTCOME MEASURE: concentration at 0.0083 hr (µg/mL)
One number for each entry, in µg/mL.

For this molecule ( Cc1cc(C(=O)O)nc(N2C[C@H]3C[C@@H](c4ccccc4C(F)(F)F)C[C@H]3C2)n1 ), measured concentration at 0.0083 hr is 11.4

----------
- PROTOCOL TEXT: Single dose pharmacokinetic study in cynomolgus monkey
- Type: in vivo
- TEST CONTEXT: male, cynomolgus monkey, plasma, iv, 1 mg/kg, non-human primate, iv 1.0 mg/kg, 12 hr; read-out: Plasma level, Individual animals
OUTCOME MEASURE: concentration at 12 hr (µg/mL)
One number for each entry, in µg/mL.

Noted for Cc1cc(C(=O)O)nc(N2C[C@H]3C[C@@H](c4ccccc4C(F)(F)F)C[C@H]3C2)n1 [BPN-14136] : its concentration at 12 hr reads 4.47

----------
- PROTOCOL TEXT: Single dose pharmacokinetic study in cynomolgus monkey
- Type: in vivo
- TEST CONTEXT: male, cynomolgus monkey, plasma, po, 5 mg/kg, non-human primate, po 5 mg/kg, 4 hr; read-out: Plasma level, Individual animals
OUTCOME MEASURE: concentration at 4 hr (ng/mL)
Give bare numbers, in ng/mL.

Value of measured concentration at 4 hr for the entry Cc1cc(C(=O)O)nc(N2C[C@H]3C[C@@H](c4ccccc4C(F)(F)F)C[C@H]3C2)n1 [BPN-14136] : 26600

----------
- PROTOCOL TEXT: Single dose pharmacokinetic study in beagle dog
- Format: in vivo
- TEST CONTEXT: male, beagle, dog, plasma, po, 2 mg/kg, male beagle dog, po 2 mg/kg, 4 hr; read-out: Plasma level, Individual animals
OUTCOME MEASURE: concentration at 4 h (ng/mL)
Numbers only, in ng/mL.

The reported concentration at 4 h of the molecule Cc1cc(C(=O)O)nc(N2C[C@H]3C[C@@H](c4ccccc4C(F)(F)F)C[C@H]3C2)n1 was 1790
